Source listed as the supplement of paper PMC13380429.

Task for the reader: assign each of the following compounds its reported inhibition of SARS-CoV-2 cytopathic effect.
Tested on: Vero E6 infected with SARS-CoV-2
protocol.text: inhibition of SARS-CoV-2 cytopathic effect; higher = more antiviral protection, active = above 15
reported.conditions: 10000 nM; 48 h
Report the value in % with no unit label.

Lookup: # lookup: inhibition of SARS-CoV-2 cytopathic effect of N=C(N)c1ccc(N2CCN(C3CCN(CC(=O)O)CC3)CC2)cc1
Found: 1.5

Lookup: # lookup: inhibition of SARS-CoV-2 cytopathic effect of CC(=O)NCCc1c(Cc2ccccc2)[nH]c2ccccc12
Found: 3.21

Lookup: # lookup: inhibition of SARS-CoV-2 cytopathic effect of CC[C@H](C)n1cc(C)c2c(C(=O)NCc3c(C)cc(C)[nH]c3=O)cc(-c3ccc(N4CCNCC4)nc3)cc21
Found: -4.63

Lookup: # lookup: inhibition of SARS-CoV-2 cytopathic effect of CC1Cc2ccccc2N1NC(=O)c1ccc(Cl)c(S(N)(=O)=O)c1 (configuration not stated) [indapamide]
Found: 1.05

Lookup: # lookup: inhibition of SARS-CoV-2 cytopathic effect of O=C(c1cn(Cc2cncn2Cc2ccc(Br)cc2)cc1-c1cccc2ccccc12)N1CCOCC1
Found: -3.78

Lookup: # lookup: inhibition of SARS-CoV-2 cytopathic effect of OC[C@H]1O[C@@H](Oc2cc(O)cc(/C=C/c3ccc(O)cc3)c2)[C@H](O)[C@@H](O)[C@@H]1O
Found: 2.31

Lookup: # lookup: inhibition of SARS-CoV-2 cytopathic effect of CO[C@H]1C[C@@H]2CC[C@@H](C)[C@@](O)(O2)C(=O)C(=O)N2CCCC[C@H]2C(=O)O[C@H]([C@H](C)C[C@@H]2CC[C@@H](O)[C@H](OC)C2)CC(=O)[C@H](C)/C=C(\C)[C@@H](O)[C@@H](OC)C(=O)[C@H](C)C[C@H](C)/C=C/C=C/C=C/1C
Found: -0.88

###

Test system: Vero E6 infected with SARS-CoV-2
protocol.text: morphology score (similarity to uninfected cells); higher = more like uninfected cells
reported.conditions: 24 h
Lab note: compare morphology score against -0.05. Equal or greater, write Criterion met. Smaller, write Criterion not met.

Lookup: Quick check, morphology score >= -0.05? CNCC(O)c1ccc(OC(=O)C(C)(C)C)c(OC(=O)C(C)(C)C)c1 (configuration not stated) [dipivefrine] (10 µM)
Found: Criterion met

Lookup: Quick check, morphology score >= -0.05? O=C(O)C1=CCNCC1 [isoguvacine] (10 µM)
Found: Criterion met

Lookup: Quick check, morphology score >= -0.05? CCCCNC(=O)NS(=O)(=O)c1ccc(C)cc1 [tolbutamide] (10 µM)
Found: Criterion met

Lookup: Quick check, morphology score >= -0.05? C=CC[C@]1(O)CC[C@H]2[C@@H]3CCC4=CCCC[C@@H]4[C@H]3CC[C@@]21C [allylestrenol] (10 µM)
Found: Criterion met

Lookup: Quick check, morphology score >= -0.05? COc1ccc(CCC(=O)c2c(O)cc(O[C@@H]3O[C@H](CO)[C@@H](O)[C@H](O)[C@H]3O[C@@H]3O[C@@H](C)[C@H](O)[C@@H](O)[C@H]3O)cc2O)cc1O [Neohesperidin dihydrochalcone (Nhdc)] (10 µM)
Found: Criterion met

Lookup: Quick check, morphology score >= -0.05? Cc1cc(O)c2c(c1)C(=O)c1cccc(O)c1C2=O [chrysophanic-acid] (10 µM)
Found: Criterion not met

Lookup: Quick check, morphology score >= -0.05? Cc1cc(C)c(CNC(=O)c2cc(-c3ccc(CN4CCOCC4)cc3)cc3c2cnn3C2CCCC2)c(=O)[nH]1 (10 µM)
Found: Criterion not met

Lookup: Quick check, morphology score >= -0.05? N#Cc1ccc(N2CCN(C(=O)COc3ccc4[nH]cc(CCN)c4c3)CC2)cc1 [donitriptan] (10 µM)
Found: Criterion met

Lookup: Quick check, morphology score >= -0.05? CC(C)NCC(O)c1ccc(N)c(C#N)c1 (configuration not stated) [cimaterol] (10 µM)
Found: Criterion not met

Lookup: Quick check, morphology score >= -0.05? CN(C[C@@H]1COCCO1)S(=O)(=O)Nc1ccc2ccc3ncc(-c4cnn(C)c4)cc3c(=O)c2c1 (0.833333 µM)
Found: Criterion met

Lookup: Quick check, morphology score >= -0.05? NCc1c[nH]c(=S)n1[C@H]1CCc2c(F)cc(F)cc2C1 [nepicastat] (10 µM)
Found: Criterion met

Lookup: Quick check, morphology score >= -0.05? Oc1c(CN2CCCC2)cc(COCc2ccccc2)c2cccnc12 (10 µM)
Found: Criterion met

Lookup: Quick check, morphology score >= -0.05? Clc1ccc(COC(Cn2ccnc2)c2ccc(Cl)cc2Cl)cc1 (configuration not stated) [econazole] (10 µM)
Found: Criterion not met

Lookup: Quick check, morphology score >= -0.05? CS(=O)(=O)N(Cc1ccco1)C[C@@H](O)Cn1c2ccccc2c2ccccc21 (10 µM)
Found: Criterion met

Lookup: Quick check, morphology score >= -0.05? CO/N=C(\C(=O)N[C@@H]1C(=O)N2C(C(=O)O)=C(COC(N)=O)CS[C@H]12)c1ccco1 (10 µM)
Found: Criterion met

Lookup: Quick check, morphology score >= -0.05? COc1ccc(S(=O)(=O)Nc2cccnc2Nc2ccc(O)cc2)cc1 (10 µM)
Found: Criterion not met

Lookup: Quick check, morphology score >= -0.05? Cc1ncc(CO)c(CO)c1O [pyridoxine] (10 µM)
Found: Criterion met
